Entries and their measured IC50 follow.
system: IL-13 induced STAT6 phosphorylation in BEAS-2B human lung epithelial cells; assay: Cellular JAKI potency assay (BEAS-2B); assay type: cell-based; settings: Homo sapiens, BEAS-2B, BEAS-2B cells, read-out: BEAS2B pIC50 (converted)

>>> df
                                   compound  measured_attribute       test_result
0  CCc1cc(O)ccc1-c1ccc2c(-c3nc(C4=CCN(Cc5cnc[nH]5)CC4)c[nH]3)n[nH]c2c1F [Example 136]                IC50  0.0316 to 0.1 µM

State the measured IC50 (IL-13 induced STAT6 phosphorylation in BEAS-2B human lung epithelial cells) of CCc1cc(O)ccc1-c1ccc2c(-c3nc(C4=CCN(CC5CNC(=O)O5)CC4)c[nH]3)n[nH]c2c1F (centres unmarked) [Example 123]
0.0316 to 0.1 µM

State the measured IC50 (IL-13 induced STAT6 phosphorylation in BEAS-2B human lung epithelial cells) of CCc1cc(O)ccc1-c1ccc2c(-c3nc(C4=CCCN(C(C)C5CC(O)C5)C4)c[nH]3)n[nH]c2c1F (centres unmarked) [Example 66]
0.01 to 0.0316 µM

State the measured IC50 (IL-13 induced STAT6 phosphorylation in BEAS-2B human lung epithelial cells) of CCc1cc(O)ccc1-c1ccc2c(-c3nc(C4=CCNCC4)c(C)[nH]3)n[nH]c2c1 [Example 291]
0.00316 to 0.01 µM

State the measured IC50 (IL-13 induced STAT6 phosphorylation in BEAS-2B human lung epithelial cells) of CCc1cc(O)ccc1-c1ccc2c(-c3nc(C4=CCN(CCc5ccccc5)C4)c[nH]3)n[nH]c2c1 [Example 141]
0.1 to 0.316 µM

State the measured IC50 (IL-13 induced STAT6 phosphorylation in BEAS-2B human lung epithelial cells) of CCc1cc(O)ccc1-c1ccc2c(-c3nc(C4=C[C@@H](COC)NC4)c[nH]3)n[nH]c2c1F [Example 246]
0.01 to 0.0316 µM

State the measured IC50 (IL-13 induced STAT6 phosphorylation in BEAS-2B human lung epithelial cells) of CCc1cc(O)ccc1-c1ccc2c(-c3nc(C4=CCCN(CCc5ccccc5)C4)c[nH]3)n[nH]c2c1 [Example 139]
0.1 to 0.316 µM

State the measured IC50 (IL-13 induced STAT6 phosphorylation in BEAS-2B human lung epithelial cells) of CCc1cc(O)ccc1-c1ccc2c(-c3nc(C4=CCN(CCN(C)C)C4)c[nH]3)n[nH]c2c1F [Example 220]
0.01 to 0.0316 µM

----------
test system: IL-13 induced STAT6 phosphorylation in BEAS-2B human lung epithelial cells; assay: Cellular JAKI potency assay (BEAS-2B); type: cell-based; details: Homo sapiens, BEAS-2B, BEAS-2B cells, read-out: BEAS2B pIC50 (converted)
Entries and their measured IC50 follow.

>>> print(df.to_string())
                                   molecule                              study_system     test_result
0  CCc1cc(O)ccc1-c1ccc2c(-c3nc(C4=CCN(C5CCC5)[C@H]4CO)c[nH]3)n[nH]c2c1F  IL-13 induced STAT6 phosphorylation in BEAS-2B human lung epithelial cells   10 to 31.6 nM
1  CCc1cc(O)ccc1-c1ccc2c(-c3nc(C4=CCN(CC5CCCO5)CC4)c[nH]3)n[nH]c2c1F (stereo not shown)  IL-13 induced STAT6 phosphorylation in BEAS-2B human lung epithelial cells   10 to 31.6 nM
2  CCc1cc(O)ccc1-c1ccc2c(-c3nc(C4=CC[C@H](C)N(CC5COC5)C4)c[nH]3)n[nH]c2c1F  IL-13 induced STAT6 phosphorylation in BEAS-2B human lung epithelial cells   10 to 31.6 nM
3  CCc1cc(O)ccc1-c1ccc2c(-c3nc(C4=CCN(CCC5(O)CC5)CC4)c[nH]3)n[nH]c2c1F  IL-13 induced STAT6 phosphorylation in BEAS-2B human lung epithelial cells   10 to 31.6 nM
4  CCc1cc(O)ccc1-c1ccc2c(-c3nc(C4=CCN(C(=O)CN5CCN(C)CC5)C4)c[nH]3)n[nH]c2c1F  IL-13 induced STAT6 phosphorylation in BEAS-2B human lung epithelial cells  31.6 to 100 nM

Next molecule, please.
Please give measured IC50 of the following entry: CCc1cc(O)ccc1-c1ccc2c(-c3nc(C4=CCN(C(=O)CCNCCOC)C4)c[nH]3)n[nH]c2c1F
31.6 to 100 nM
